Hello, the source for this data is patent US20250197387A1, in case you need it.

- TESTED_TARGET: BCL-XL (Homo sapiens, UniProt Q07817)
- Construct: endogenous in cells; host or cells: MOLT-4
- Sequence (Q07817 whole entry): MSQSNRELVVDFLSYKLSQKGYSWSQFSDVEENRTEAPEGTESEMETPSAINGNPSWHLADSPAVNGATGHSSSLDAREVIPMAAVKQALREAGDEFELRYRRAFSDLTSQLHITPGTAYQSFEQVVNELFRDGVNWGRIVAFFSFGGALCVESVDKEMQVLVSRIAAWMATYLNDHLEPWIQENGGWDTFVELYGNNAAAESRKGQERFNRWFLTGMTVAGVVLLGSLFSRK
- ASSAY_PROCEDURE: BCL-XL degradation assay, western blot in MOLT-4 cells, 16 h
- Assay type: cell-based
- SETUP_CONDITIONS: western blot, MOLT-4 cells, 16 h; read-out: Bcl-xL WB in MOLT-4 degradation 16 h: Mean external-Abs DC50
OBSERVATION_TYPE: DC50

Here is how some compounds turned out for DC50.
[
  {
    "COMPOUND": "Cc1ncsc1-c1ccc([C@H](C)NC(=O)[C@@H]2C[C@@H](O)CN2C(=O)[C@@H](NC(=O)CCCCCS(=O)(=O)NC(=O)c2nc(N3CCc4cccc(C(=O)Nc5nc6ccccc6s5)c4C3)ccc2-c2cnn(CC3CCCCC3)c2C)C(C)(C)C)cc1",
    "DC50": "< 10 nM"
  },
  {
    "COMPOUND": "Cc1ncsc1-c1ccc([C@H](C)NC(=O)[C@@H]2C[C@@H](O)CN2C(=O)[C@@H](NC(=O)CCCCCCC(=O)N2CCN(CC3(C)CCC(c4ccc(Cl)cc4)=C(CN4CCN(c5ccc(C(=O)NS(=O)(=O)c6ccc(N[C@H](CCN7CCOCC7)CSc7ccccc7)c(S(=O)(=O)C(F)(F)F)c6)cc5)CC4)C3)CC2)C(C)(C)C)cc1 (stereo partly shown) [I-395]",
    "DC50": "< 10 nM"
  },
  {
    "COMPOUND": "Cc1ncsc1-c1ccc(CNC(=O)[C@@H]2C[C@@H](O)CN2C(=O)C(c2cc(OCCCCCCCCC(=O)N(C)CC#Cc3ccc(OCCCc4sc(N5CCc6cccc(C(=O)Nc7nc8ccccc8s7)c6C5)nc4C(=O)O)c(F)c3)no2)C(C)C)cc1 (stereo partly shown)",
    "DC50": "10 to 100 nM"
  },
  {
    "COMPOUND": "Cc1ncsc1-c1ccc([C@H](C)NC(=O)[C@@H]2C[C@@H](O)CN2C(=O)[C@@H](NC(=O)COCCN2CCC(S(=O)(=O)NC(=O)c3nc(N4CCc5cccc(C(=O)Nc6nc7ccccc7s6)c5C4)ccc3-c3cnn(CC4CCCCC4)c3C)CC2)C(C)(C)C)cc1",
    "DC50": "< 10 nM"
  },
  {
    "COMPOUND": "Cc1ncsc1-c1ccc(CNC(=O)[C@@H]2C[C@@H](O)CN2C(=O)[C@@H](NC(=O)C2(F)CC2)C(C)(C)C)c(OCCCN2CCN(CC[C@H](CSc3ccccc3)Nc3ccc(S(=O)(=O)NC(=O)c4ccc(N5CCN(CC6=C(c7ccc(Cl)cc7)CCC(C)(C)C6)CC5)cc4)cc3S(=O)(=O)C(F)(F)F)CC2)c1",
    "DC50": "10 to 100 nM"
  }
]

stdin: Which DC50 value belongs to C#Cc1ccc([C@H](CO)NC(=O)[C@@H]2C[C@@H](O)CN2C(=O)[C@@H](NC(=O)C2CCN(c3ccc(S(=O)(=O)NC(=O)c4nc(N5CCc6cccc(C(=O)Nc7nc8ccccc8s7)c6C5)ccc4-c4cnn(CC5CCCCC5)c4C)cc3)CC2)C(C)(C)C)cc1 ?
stdout: < 10 nM

stdin: Which DC50 value belongs to Cc1ncsc1-c1ccc(CNC(=O)[C@@H]2C[C@@H](O)CN2C(=O)[C@@H](NC(=O)C2(F)CC2)C(C)(C)C)c(OCCCCCS(=O)(=O)NC(=O)c2nc(N3CCc4cccc(C(=O)Nc5nc6cccnc6s5)c4C3)ccc2-c2cnn(CC3CCCCC3)c2C)c1 ?
stdout: 10 to 100 nM
